# Tested on: Ramos cells
# test_name: Calcium flux assay, IgM-induced calcium influx in Ramos cells
# Format: cell-based
# condition_info: Ramos cells stimulated with goat anti-human IgM antibody 10 μg/ml; read-out: Ramos Ca Flux
metric: IC50

# input_smiles, target, IC50
data = [
    ("C=CC(=O)N1CC[C@@H](n2c(=O)n(-c3ccc(Oc4cccc(C)c4)cc3)c3cnccc32)C1", "Ramos cells", "0.01 to 0.1 µM"),
]

Prompt: Give IC50 for the following compound: C=CC(=O)N1CC[C@@H](n2c(=O)n(-c3ccc(Oc4ccccc4)c(Cl)c3)c3cnccc32)C1
Response: 0.01 to 0.1 µM

----------
# target: BTK (Homo sapiens (Human), UniProt Q06187)
# Sequence (Q06187 whole entry, species assumed): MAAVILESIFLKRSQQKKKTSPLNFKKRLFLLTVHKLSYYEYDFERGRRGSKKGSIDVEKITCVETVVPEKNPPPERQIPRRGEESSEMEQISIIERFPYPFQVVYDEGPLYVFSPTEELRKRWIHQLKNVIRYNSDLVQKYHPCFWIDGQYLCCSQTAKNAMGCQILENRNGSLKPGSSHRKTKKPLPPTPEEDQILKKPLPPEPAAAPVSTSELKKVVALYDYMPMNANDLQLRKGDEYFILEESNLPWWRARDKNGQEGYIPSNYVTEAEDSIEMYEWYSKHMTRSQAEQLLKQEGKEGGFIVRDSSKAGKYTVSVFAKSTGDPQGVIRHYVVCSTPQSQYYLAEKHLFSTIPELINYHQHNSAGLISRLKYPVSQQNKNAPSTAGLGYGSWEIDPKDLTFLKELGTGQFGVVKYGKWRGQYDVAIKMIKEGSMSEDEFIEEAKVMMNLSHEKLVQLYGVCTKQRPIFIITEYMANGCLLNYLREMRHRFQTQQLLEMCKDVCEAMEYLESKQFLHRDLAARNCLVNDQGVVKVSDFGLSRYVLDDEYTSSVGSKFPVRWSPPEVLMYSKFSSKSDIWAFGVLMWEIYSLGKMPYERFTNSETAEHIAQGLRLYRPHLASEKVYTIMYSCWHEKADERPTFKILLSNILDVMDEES
# test_name: Btk kinase assay (HTRF)
# Format: biochemical
# condition_info: [ATP]=80 μM, BTK=3.4 nM; read-out: BTK Inhibition
Below, each of the compounds is paired with its reported IC50 value.

Prompt: Answer briefly: IC50 recorded on BTK (Homo sapiens (Human), UniProt Q06187) for C=CC(=O)N1CC[C@@H](n2c(=O)n(-c3ccc(OCc4ccc(F)cc4F)cc3)c3cnccc32)C1 [Example 199]
Response: 0.1 to 1 µM

Prompt: Fetch value of IC50 on BTK (Homo sapiens (Human), UniProt Q06187) for C=CC(=O)N1CCC(n2c(=O)n(-c3ccc(Oc4cccc(OC(F)(F)F)c4)cc3)c3cnccc32)C1 (stereo not shown) [Example 112] .
Response: 0.01 to 0.1 µM

Prompt: Under BTK (Homo sapiens (Human), UniProt Q06187), report IC50 for C=CC(=O)N1CC[C@@H](n2c(=O)n(-c3ccc(Oc4cccc(F)c4OC)cc3)c3cnccc32)C1 [Example 137]
Response: 0.1 to 1 µM

Prompt: Answer briefly: IC50 recorded on BTK (Homo sapiens (Human), UniProt Q06187) for C=CC(=O)Nc1cccc(-n2c(=O)n(-c3ccc(Oc4cccc(F)c4)c(C)c3)c3cnccc32)c1 [Example 146]
Response: 0.01 to 0.1 µM

Prompt: Please look at C=CC(=O)N1CC[C@@H](n2c(=O)n(-c3cccc(-c4ccccc4C)c3)c3cnccc32)C1 [Example 273] and tell me its recorded IC50 on BTK (Homo sapiens (Human), UniProt Q06187).
Response: 0.1 to 1 µM

Prompt: Send back BTK (Homo sapiens (Human), UniProt Q06187) IC50 of C=CC(=O)N1CCC[C@@H](n2c(=O)n(-c3ccc(Oc4cccc(OC)c4C)cc3)c3cnccc32)C1 [Example 142] only.
Response: 0.01 to 0.1 µM

Prompt: // fetch IC50 for C=CC(=O)N1CC[C@@H](n2c(=O)n(-c3cccc(Oc4ccc(C)cc4)c3)c3cnccc32)C1 [Example 16] ; system: BTK (Homo sapiens (Human), UniProt Q06187)
Response: 0.01 to 0.1 µM
